# System: adult Tetranychus cinnabarinus
# testDescription: Activity assay of adult Tetranychus cinnabarinus (whole-plant spray on bean seedlings)
# Type: in vivo
# conditions: adult mites, concentration 1.25 mg/L, 48 h, parallel determination, read-out: Death rate (%)
Could you please report measured pest or weed control at 1.25 µg/mL for the items listed next?
One number for each entry, in %.

Example cases with answers are listed next.
>>> print(df.to_string())
                                   molecule                         readouttype  uom  number
0  CCC(=O)OCO/C(=C(/C#N)c1ccc(C(C)(C)C)cc1)c1cc(C)nn1CC  pest or weed control at 1.25 µg/mL    %      98
1  CCn1nc(C)cc1/C(OC(C)OC(=O)OCC(C)C)=C(\C#N)c1ccc(C(C)(C)C)cc1 (stereo not shown)  pest or weed control at 1.25 µg/mL    %     100
2  CCn1nc(C)cc1/C(OCOC(C)=O)=C(\C#N)c1ccc(C(C)(C)C)cc1  pest or weed control at 1.25 µg/mL    %      96

Kindly consider the entry below.
GET /values?readout=pest or weed control at 1.25 µg/mL&item= CCOC(=O)OCO/C(=C(/C#N)c1ccc(C(C)(C)C)cc1)c1c(C)c(C)nn1CC
90

###

# System: adult Tetranychus cinnabarinus
# testDescription: Activity assay of adult Tetranychus cinnabarinus (whole-plant spray on bean seedlings)
# Type: in vivo
# conditions: adult mites, concentration 1.25 mg/L, 48 h, parallel determination, read-out: Death rate (%)
# Method: According to the solubility of the test compound, the crude drug was dissolved in N, N-dimethlfornamide, and then prepared into a test solution of the desired concentration with 1‰ Tween 80 aqueous solution. The content of N,N-dimethylformamide in the solution should not exceed 10%. Two euphylla bean seedlings were taken, after inoculated with adult Tetranychus cinnabarinus and the base number was investigated, whole plants were sprayed with a hand-held sprayer. […]
readoutType: pest or weed control at 1.25 µg/mL (%)
Numbers only, in %.

In [3]: df
Out[3]:
                                   compound  number
0  CCn1nc(C)cc1/C(OC(C)OC(=O)C(C)(C)C)=C(\C#N)c1ccc(C(C)(C)C)cc1 (stereo not drawn)      95
1  CCn1nc(C)cc1/C(OCOC(=O)OC)=C(\C#N)c1ccc(C(C)(C)C)cc1     100
2  CCn1nc(C)cc1/C(OCOC(=O)C(C)(C)CC)=C(\C#N)c1ccc(C(C)(C)C)cc1     100
3  CCn1nc(C)cc1/C(OC(C)OC(=O)C(C)C)=C(\C#N)c1ccc(C(C)(C)C)cc1 (stereo not drawn)      97
4  CCn1nc(C)cc1/C(OC(C)OC(C)=O)=C(\C#N)c1ccc(C(C)(C)C)cc1 (stereo not drawn)     100

GET /values?readout=pest or weed control at 1.25 µg/mL&item= CCn1nc(C)cc1/C(OCOC(=O)C(C)(C)C)=C(\C#N)c1ccc(C(C)(C)C)cc1
100
